Where do the numbers come from? From ChEMBL document CHEMBL3352345.

tested on: MDA-MB-231; assay: Cytotoxicity against human MDA-MB-231 cells after 72 hrs by MTT assay; format: functional, cell-based; conditions: MDA-MB-231, 72 h
Under this convention, TRUE denotes IC50 strictly below 1000 nM and FALSE denotes IC50 at or above 1000 nM.

Input CN(C)CCNc1nc(-c2ccc(NC(=O)Nc3ccc(Cl)cc3Cl)cc2)nc2c(Cl)c(Cl)sc12 ; condition: IC50 strictly below 1000 nM. Does it hold?
FALSE

Input CCN(CC)CCNc1nc(-c2ccc(NC(=O)Nc3ccc(F)cc3)cc2)nc2c(Cl)c(Cl)sc12 ; condition: IC50 strictly below 1000 nM. Does it hold?
FALSE

Input CCN(CC)CCCNc1nc(-c2ccc(NC(=O)Nc3ccc(F)cc3)cc2)nc2ccsc12 ; condition: IC50 strictly below 1000 nM. Does it hold?
TRUE

Input Cc1ccc(NC(=O)Nc2ccc(-c3nc(NCCN(C)C)c4sccc4n3)cc2)cc1 ; condition: IC50 strictly below 1000 nM. Does it hold?
FALSE

Input CCN(CC)CCCNc1nc(-c2ccc(NC(=O)Nc3ccc(F)cc3)cc2)nc2c(Cl)c(Cl)sc12 ; condition: IC50 strictly below 1000 nM. Does it hold?
FALSE

Input CN(C)CCNc1nc(-c2ccc(NC(=O)Nc3ccccc3Cl)cc2)nc2ccsc12 ; condition: IC50 strictly below 1000 nM. Does it hold?
TRUE

Input CCN(CC)CCNc1nc(-c2ccc(NC(=O)Nc3ccc(Cl)cc3)cc2)nc2c(Cl)c(Cl)sc12 ; condition: IC50 strictly below 1000 nM. Does it hold?
TRUE

Input CN(C)CCNc1nc(-c2ccc(NC(=O)Nc3ccc(F)cc3)cc2)nc2ccsc12 ; condition: IC50 strictly below 1000 nM. Does it hold?
TRUE

Input CCN(CC)CCCNc1nc(-c2ccc(NC(=O)Nc3ccccc3)cc2)nc2ccsc12 ; condition: IC50 strictly below 1000 nM. Does it hold?
FALSE

Input CCN(CC)CCNc1nc(-c2ccc(NC(=O)Nc3ccc(C)cc3)cc2)nc2c(Cl)c(Cl)sc12 ; condition: IC50 strictly below 1000 nM. Does it hold?
FALSE

Input CCN(CC)CCCNc1nc(-c2ccc(NC(=O)Nc3ccc(C)cc3)cc2)nc2c(Cl)c(Cl)sc12 ; condition: IC50 strictly below 1000 nM. Does it hold?
FALSE
